Listed here: compounds with reported pIC50 for BLK (Homo sapiens, UniProt P51451).
// pIC50 here means minus log10 of the molar concentration (mol/L)

Some solved entries appear below for comparison.
[
  {
    "COMPOUND": "C=C(COC(=O)OC)C(=O)N1CCC[C@@H](n2nc(-c3ccc(Oc4ccccc4)cc3)c3c(N)ncnc32)C1 [3i]",
    "pIC50": 9.10
  },
  {
    "COMPOUND": "C=C(COC(C)=O)C(=O)N1CCC[C@@H](n2nc(-c3ccc(Oc4ccccc4)cc3)c3c(N)ncnc32)C1 [3h]",
    "pIC50": 9.22
  },
  {
    "COMPOUND": "C=C(CNCc1ccccc1)C(=O)N1CCC[C@@H](n2nc(-c3ccc(Oc4ccccc4)cc3)c3c(N)ncnc32)C1 [3e]",
    "pIC50": 10.00
  }
]

Lab note: next compound to report on.
// query May I ask what pIC50 has been recorded for C=C(CN1CCCCC1)C(=O)N1CCC[C@@H](n2nc(-c3ccc(Oc4ccccc4)cc3)c3c(N)ncnc32)C1 [3c] ?
// result 10.00

* * *

Biological target: UniProtKB Q06187
Conditions: 0.75 uM BTK, […] probe 3l, 15 min preincubation, 10 µM, inhibitor, BTK inhibition (%)
# BTK inhibition (%) values compiled below
// units = %; emit number, no label

// query May I ask what BTK inhibition (%) has been recorded for Cc1ccccc1C(=O)Nc1ccc(C(=O)N2CCCC(N(C)C)c3ccccc32)cc1 (centres unmarked) [PCM-0095419] ?
// result -13.6

// query Further, for C=C1[C@H](CO)[C@@H](O)C[C@@H]1n1cnc2c(=O)[nH]c(N)nc21 [PCM-0216093] ?
// result 11

* * *

Target: BTK (Homo sapiens, UniProt Q06187)
Sequence (Q06187 402-655 limits assumed): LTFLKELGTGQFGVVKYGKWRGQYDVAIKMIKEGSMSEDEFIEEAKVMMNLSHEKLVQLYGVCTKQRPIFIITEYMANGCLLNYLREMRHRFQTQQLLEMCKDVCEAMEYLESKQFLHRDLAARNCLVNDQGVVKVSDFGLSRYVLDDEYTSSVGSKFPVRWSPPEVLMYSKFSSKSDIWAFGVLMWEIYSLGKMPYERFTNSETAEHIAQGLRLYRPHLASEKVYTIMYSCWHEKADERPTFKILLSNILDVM
Experiment: biochemical
Settings: read-out: BTK inhibition (%), 0.75 uM BTK, […] probe 3l, 15 min preincubation
# inhibition at 10 µM values compiled below
// units = %; emit number, no label

[
  {
    "MOLECULE": "O=c1cc(-c2ccc(O)c(O)c2)oc2cc(O)c([C@@H]3O[C@H](CO)[C@@H](O)[C@H](O)[C@H]3O)c(O)c12 [PCM-0216497]",
    "UNITS OF MEASURE": "%",
    "READOUT VALUE": -4.6
  },
  {
    "MOLECULE": "O=C(O)c1cccc(-c2noc(-c3ccccc3F)n2)c1 [PCM-0095566]",
    "UNITS OF MEASURE": "%",
    "READOUT VALUE": -10
  }
]

// query API: value(readout= inhibition at 10 µM, system= BTK (Homo sapiens, UniProt Q06187), query= C[C@@H]1O[C@@H](O[C@H]2[C@H](Oc3cc(O)c4c(c3)O[C@H](c3ccc(O)cc3)CC4=O)O[C@H](CO)[C@@H](O)[C@@H]2O)[C@H](O)[C@H](O)[C@H]1O [PCM-0088327] )
// result -7

// query Further, for CC(=O)c1cc([N+](=O)[O-])c(Sc2ccc(F)cc2F)s1 [PCM-0215212] ?
// result 5.4

// query Further, for Brc1ccc2[nH]ccc2c1 [PCM-0216166] ?
// result -11.6

// query Further, for CC(C)NCC(O)c1ccc(O)c(O)c1 (stereo not shown) [PCM-0065609] ?
// result 7

// query Further, for Cc1oncc1C(=O)Nc1ccc(C(F)(F)F)cc1 [PCM-0065349] ?
// result -5.5

// query Further, for Cc1c(Cl)c(OCC(=O)N2CCN(C)CC2)nc2sc(C(=O)NC3CC3)c(N)c12 [PCM-0215380] ?
// result -10.8

// query Further, for C=C1[C@H]2CC[C@@H]3[C@H]2C(C)(C)CCC[C@]13C [PCM-0216219] ?
// result 4.6

// query Further, for Oc1cc(CNC(=S)/C=C/c2cc(O)c(O)c(Br)c2)cc(O)c1O [PCM-0215728] ?
// result 43.4

// query Further, for CO[C@H]1/C=C\C=C(/C)C(=O)NC2=CC(=O)C(NCCN(C)C)=C(C[C@@H](C)C[C@H](OC)[C@H](O)[C@@H](C)/C=C(\C)[C@@H]1OC(N)=O)C2=O [PCM-0094961] ?
// result 28.3

// query Further, for OC[C@@H](O)[C@H](O)[C@H](O)[C@@H](O)CO [PCM-0215034] ?
// result -10.1

// query Further, for C=C1C[C@@]23CC[C@H]4[C@@](C)(CCC[C@@]4(C)C(=O)O[C@@H]4O[C@H](CO)[C@@H](O)[C@H](O)[C@H]4O)[C@@H]2CC[C@]1(O[C@@H]1O[C@H](CO)[C@@H](O)[C@H](O)[C@H]1O)C3 [PCM-0216413] ?
// result 4.6

// query Further, for CCOC(=O)[C@H](CCc1ccccc1)N[C@@H](C)C(=O)N1Cc2ccccc2C[C@H]1C(=O)O [PCM-0086504] ?
// result -16.3

// query Further, for O=C(Nc1ccccc1-c1cn2c(CN3CCNCC3)csc2n1)c1cnc2ccccc2n1 [PCM-0094935] ?
// result 10.3

// query Further, for Nc1ccn([C@@H]2O[C@H](CO)[C@@H](O)[C@H]2O)c(=O)n1 [PCM-0095215] ?
// result -15.6

// query Further, for Cc1ncc([N+](=O)[O-])n1CCO [PCM-0085759] ?
// result -5.4

// query Further, for CO/N=C(\C(=O)N[C@@H]1C(=O)N2C(C(=O)O)=C(CSc3nc(C)c(CC(=O)O)s3)CS[C@H]12)c1csc(N)n1 [PCM-0215155] ?
// result -2.3

// query Further, for O=S(=O)(O)c1ccc2cc(N=Nc3cc(S(=O)(=O)O)c4cccnc4c3O)ccc2c1 [PCM-0215685] ?
// result 54.1

// query Further, for COc1cc(C(=O)N(CCCc2ccccc2)Cc2ccc(CC(=O)O)cc2)cc(OC)c1C [PCM-0215725] ?
// result 16.2

* * *

Biological target: UniProtKB Q06187
Experiment: biochemical
Settings: read-out: BTK inhibition (%), 0.75 uM BTK, […] probe 3l, 15 min preincubation
QUANTITY KIND: inhibition at 10 µM (%)
// units = %; emit number, no label

Some solved entries appear below for comparison.
[
  {
    "COMPOUND": "COc1cc(OC2CCN(C)CC2)ccc1Nc1ncc2c(n1)n(C1CCCC1)c(=O)n2C",
    "READOUT VALUE": -15.2
  },
  {
    "COMPOUND": "Cc1cc(C(N)=O)ccc1-n1c(CCC(=O)O)ccc1-c1ccc(-n2ccnc2)cc1",
    "READOUT VALUE": 6.9
  }
]

// query API: value(readout= inhibition at 10 µM, system= UniProtKB Q06187, query= Cc1ccc(S(=O)(=O)NC(=O)NN2CC3CCCC3C2)cc1 (stereo not drawn) )
// result -2.3

// query Further, for Cc1nn(C)c2c1C(c1ccc(C(F)(F)F)cc1)C(C#N)=C(N)O2 (stereo not drawn) ?
// result -6.9

// query Further, for `CCc1cc(C(N)=S)ccn1` ?
// result -14.8

// query Further, for `Nc1nc(N)c2nc(-c3cccc(O)c3)c(-c3cccc(O)c3)nc2n1` ?
// result 55.2

// query Further, for `CN1C2=C3N=c4ccccc4=C3CCN2C(=O)c2ccccc21` ?
// result 7

// query Further, for `CC(=O)OC/C=C/c1ccccc1` ?
// result -14.7

// query Further, for `N/C(=N\N=C\c1ccc(Cl)cc1)N/N=C/c1ccc(Cl)cc1` ?
// result 77.8

* * *

Molecular target: BTK (Homo sapiens, UniProt Q06187)
Experiment: biochemical
Settings: read-out: BTK inhibition (%), 0.75 uM BTK, […] probe 3l, 15 min preincubation
# binarize inhibition at 10 µM: threshold -10% inclusive, high side yes (1), low side no (0)

[
  {
    "MOLECULAR STRING": "CCN(CC)CCOC(=O)C(c1ccccc1)c1ccccc1",
    "CLASS NAME": "yes (1)"
  },
  {
    "MOLECULAR STRING": "C=C[C@]1(C)C[C@@H](OC(=O)CSC(C)(C)CNC(=O)[C@H](N)C(C)C)[C@]2(C)[C@H](C)CC[C@]3(CCC(=O)[C@H]32)[C@@H](C)[C@@H]1O",
    "CLASS NAME": "yes (1)"
  },
  {
    "MOLECULAR STRING": "CO[C@H]1/C=C/O[C@@]2(C)Oc3c(C)c(O)c4c(O)c(cc(O)c4c3C2=O)NC(=O)/C(C)=C\\C=C\\[C@H](C)[C@H](O)[C@@H](C)[C@@H](O)[C@@H](C)[C@H](OC(C)=O)[C@@H]1C",
    "CLASS NAME": "yes (1)"
  }
]

// next entry
// query Textbook exercise: given the entry `Cc1nc2ccc(CN(C)c3ccc(C(=O)N[C@@H](CCC(=O)O)C(=O)O)s3)cc2c(=O)[nH]1` , state whether its inhibition at 10 µM is greater than or equal to -10%.
// result yes (1)
